# Tested on: HIV-1IIIB
# PROTOCOL SUMMARY: MTT assay, HIV-1IIIB in MT-4 cells
# Type: cell-based
# CONDITION PARAMETERS: CC50/EC50 ratio, HIV-1IIIB in MT-4 cells
Binary call on SI (CC50/EC50) MT-4 cells with cut-off 6: strictly below means fulfilled, and equality or higher means not fulfilled.

>>> df
                                    compound  class_assignment
 0  CON=C(F)c1cc(/C(=C\CCCc2nnc(C)o2)c2cc(C)c3oc(=O)n(C)c3c2)cc(C)c1OC [ADAM 5]     not fulfilled
 1  CON=C(Cl)c1cc(/C(=C\CCCc2nc(C)no2)c2cc(C)c3onc(OC)c3c2)cc(C)c1OC [ADAM 20]         fulfilled
 2  CON=C(Cl)c1cc(/C(=C\CCCc2nc(C)no2)c2cc(C)c3oc(=O)n(C)c3c2)cc(C)c1OC [ADAM 17]     not fulfilled
 3  CON=C(Cl)c1cc(/C(=C\CCCc2nnc(C)o2)c2ccc(C#N)cc2)cc(C)c1OC [ADAM 23]     not fulfilled
 4  CON=C(Cl)c1cc(/C(=C\CCCc2nc(C)no2)c2cccc(C#N)c2)cc(C)c1OC [ADAM 22]     not fulfilled
 5  CO/N=C(\Cl)CCC/C=C(/c1cccc(C#N)c1)c1cc(C)c(OC)c(C(=O)SC)c1 [ADAM 28]     not fulfilled
 6  CO/N=C(\Cl)CCC/C=C(/c1ccc(C#N)cc1)c1cc(C)c(OC)c(C(=O)SC)c1 [ADAM 29]     not fulfilled
 7  CO/N=C(\Cl)CCC/C=C(\c1cc(C)c(OC)c(C(=O)SC)c1)c1cc(C)c2onc(OC)c2c1 [ADAM 27]         fulfilled
 8  CON=C(Cl)c1cc(/C(=C\CCCc2nc(C)no2)c2ccc(C#N)cc2)cc(C)c1OC [ADAM 24]     not fulfilled
 9  CO/N=C(\Cl)CCC/C=C(\c1cc(C)c(OC)c(C(=O)SC)c1)c1cc(C)c2oc(=O)n(C)c2c1 [ADAM 26]     not fulfilled
10  CON=C(F)c1cc(/C(=C\CCCc2nc(C)no2)c2ccc(C#N)cc2)cc(C)c1OC [ADAM 14]         fulfilled
11  CON=C(F)c1cc(/C(=C\CCCc2nc(C)no2)c2cc(C)c3onc(OC)c3c2)cc(C)c1OC [ADAM 8]         fulfilled
12  CON=C(Cl)c1cc(/C(=C\CCCc2nnc(C)o2)c2cc(C)c3oc(=O)n(C)c3c2)cc(C)c1OC [ADAM 16]     not fulfilled
